- Tested on: Staphylococcus aureus
- Protocol notes: Antibacterial activity against Staphylococcus aureus ATCC 29213 assessed as bacterial growth inhibition incubated for 18 to 24 hrs by broth microdilution method
- Format: functional
- Condition parameters: Staphylococcus aureus, ATCC 29213; time 18-24 hrs; read-out: MIC
Each record here notes measured MIC.
Experimental readout: MIC (µg/mL)

# Compound, Observed value
data = [
    ("CCN1C(=O)[C@@]2(CN(C)C3(c4cc(I)ccc4-n4c3nc3ccc(Cl)cc3c4=O)C2(C#N)C#N)c2ccccc21 (stereo partly drawn)", 1),
    ("CCN1C(=O)[C@@]2(CN(C)C3(c4cc(I)ccc4-n4c3nc3ccccc3c4=O)C2(C#N)C#N)c2ccccc21 (stereo partly drawn)", 0.25),
    ("CO[C@H]1/C=C/O[C@@]2(C)Oc3c(C)c(O)c4c(O)c(c(/C=N/N5CCN(C)CC5)c(O)c4c3C2=O)NC(=O)/C(C)=C\\C=C\\[C@H](C)[C@H](O)[C@@H](C)[C@@H](O)[C@@H](C)[C@H](OC(C)=O)[C@@H]1C [RIFAMPIN]", 0.008),
    ("CCN1C(=O)[C@@]2(CN(C)C3(c4cc(Cl)ccc4-n4c3nc3ccccc3c4=O)C2(C#N)C#N)c2ccccc21 (stereo partly drawn)", 0.125),
    ("CCN1C(=O)[C@]2(c3cc(Cl)ccc31)C(Cc1c[nH]c3ccccc13)NC1(c3cc(Cl)ccc3-n3c1nc1ccccc1c3=O)C2(C#N)C#N (stereo partly drawn)", 0.25),
    ("C[C@@H](O)[C@H]1C(=O)N2C(C(=O)O)=C(S[C@@H]3CN[C@H](C(=O)N(C)C)C3)[C@H](C)[C@H]12 [MEROPENEM]", 0.063),
    ("CCN1C(=O)[C@@]2(CN(C)C3(c4cc(OC)ccc4-n4c3nc3ccccc3c4=O)C2(C#N)C#N)c2ccccc21 (stereo partly drawn)", 0.125),
    ("CCN1C(=O)[C@@]2(CN(C)C3(c4ccccc4-n4c3nc3ccccc3c4=O)C2(C#N)C#N)c2ccccc21 (stereo partly drawn)", 1),
    ("CC(C)(O/N=C(\\C(=O)N[C@@H]1C(=O)N2C(C(=O)[O-])=C(C[n+]3ccccc3)CS[C@H]12)c1csc(N)n1)C(=O)O [CEFTAZIDIME]", 8),
    ("CCCCCCCCCC(=O)N[C@@H](Cc1c[nH]c2ccccc12)C(=O)N[C@H](CC(N)=O)C(=O)N[C@@H](CC(=O)O)C(=O)N[C@@H]1C(=O)NCC(=O)N[C@@H](CCCN)C(=O)N[C@@H](CC(=O)O)C(=O)N[C@H](C)C(=O)N[C@@H](CC(=O)O)C(=O)NCC(=O)N[C@H](CO)C(=O)N[C@@H]([C@H](C)CC(=O)O)C(=O)N[C@@H](CC(=O)c2ccccc2N)C(=O)O[C@@H]1C", 1),
    ("CCN1C(=O)[C@@]2(CN(C)C3(c4cc(Br)ccc4-n4c3nc3ccccc3c4=O)C2(C#N)C#N)c2ccccc21 (stereo partly drawn)", 0.125),
    ("C[C@H]1COc2c(N3CCN(C)CC3)c(F)cc3c(=O)c(C(=O)O)cn1c23 [LEVOFLOXACIN ANHYDROUS]", 0.125),
    ("CN(C)c1ccc(O)c2c1C[C@H]1C[C@H]3[C@H](N(C)C)C(O)=C(C(N)=O)C(=O)[C@@]3(O)C(O)=C1C2=O [MINOCYCLINE]", 0.125),
]
